Reported Selectivity Index values for a set of molecules
EXPERIMENTAL SYSTEM: PLK1 PBD (Homo sapiens, UniProt P53350)
Sequence (P53350 367-603 limits assumed): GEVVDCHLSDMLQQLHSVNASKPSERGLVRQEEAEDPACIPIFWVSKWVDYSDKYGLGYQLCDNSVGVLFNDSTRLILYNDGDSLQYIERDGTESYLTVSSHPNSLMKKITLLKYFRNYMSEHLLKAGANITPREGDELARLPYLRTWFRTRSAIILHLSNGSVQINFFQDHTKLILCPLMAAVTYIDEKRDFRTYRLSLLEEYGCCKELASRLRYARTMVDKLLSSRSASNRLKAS
METHOD SUMMARY: Fluorescence polarization competitive binding assay, PLK1 PBD
PROTOCOL CONDITIONS: (IC50 PLK3 PBD/IC50 PLK1 PBD)×5, PLK1 over PLK3
Square brackets hold non-standard residues; d marks the D form. Peptide text beside a SMILES is read from it. pT = C[C@@H](OP(=O)(O)O)[C@H](N)C(=O)O
OBSERVABLE: Selectivity Index

>>> result("CC(=O)N1CCC[C@H]1C(=O)N[C@@H](CC(C)C)C(=O)N[C@@H](Cc1c[nH]cn1)C(=O)N[C@@H](CO)C(=O)N[C@H](C(=O)N1CCC[C@H]1C(=O)N[C@@H](CC(N)=O)C(=O)NCC(=O)N[C@@H](CC(C)C)C(=O)O)[C@@H](C)OP(=O)(O)O [SEQ ID NO: 3, Ac-PLHS[pT]PNGL] (Ac-PLHS[pT]PNGL-OH; C-terminus assumed)")
"13,633"
>>> result("CC(C)C[C@H](NC(=O)CNC(=O)[C@H](CC(N)=O)NC(=O)[C@@H]1CCCN1C(=O)[C@@H](NC(=O)[C@H](CO)NC(=O)[C@@H](NC(=O)[C@H](C)NC(=O)[C@H](CC(C)C)NC(=O)[C@@H]1CCCN1C(=O)CN)[C@@H](C)O)[C@@H](C)OP(=O)(O)O)C(=O)O [SEQ ID NO: 8, GPLATS[pT]PNGL] (H-GPLATS[pT]PNGL-OH; N-terminus and C-terminus assumed)")
2864
>>> result("CC[C@H](C)[C@H](NC(=O)[C@H](C)NC(=O)[C@@H](NC(=O)[C@H](CO)NC(=O)[C@H](Cc1c[nH]cn1)NC(=O)[C@H](CC(C)C)NC(C)=O)[C@@H](C)OP(=O)(O)O)C(=O)O [SEQ ID NO: 5, Ac-LHS[pT]Al] (Ac-LHS[pT]AI-OH; C-terminus assumed)")
">1900"
